- Test Method Notes: CCTE_Shafer_MEA_dev_per_burst_interspike_interval: CCTE's Neural Network Formation Assay for Burst Interspike Interval, Shafer Lab (AID 2284044);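 further: mean spike spacing inside bursts as AUC over recordings on days 5 7 9 12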
- Description: CCTE_Shafer_MEA_dev assay is conducted using Axion Biosystems 48 well microelectrode array (MEA) plates and Maestro recording system. Each well of the MEA plate contains a grid of 16 microelectrodes embedded in the culture surface. Electrically active cells, such as neurons, can be cultured over the electrodes, and electrical activity in these cells can be recorded extracellularly. […]
Calls of active or inactive are those of the source. How the source made its calls: active means hit-call score of the fitted dose curve at least 0.9, where 1 is the maximum; inactive means score below 0.9.
Field 'call' accepts 1 (active), -1 (inactive)

Completed entries (count: 3):
Compound	Class Assignment
Oc1cc(Cl)ccc1Oc1ccc(Cl)cc1Cl	1
CC(C)N(C(=O)COc1nnc(C(F)(F)F)s1)c1ccc(F)cc1	-1
O=[N+]([O-])/N=C1\NCCN1Cc1ccc(Cl)nc1	-1

**Query** Outcome logged for COP(=S)(OC)Oc1ccc([N+](=O)[O-])cc1 in this assay:
**Result** -1

**Query** Outcome logged for CC1(c2ccc(Oc3ccccc3)cc2)OC(=O)N(Nc2ccccc2)C1=O (stereo unspecified) in this assay:
**Result** 1

**Query** Outcome logged for O=C(O)COc1ccc(Cl)cc1Cl in this assay:
**Result** -1

* * *

- Test Method Notes: APR_HepG2_P-H2AX_24hr: Apredica 24-hour HepG2 Assay for H2AX Phosphorylation (AID 2282920)
- Condition Description: high-content imaging, actives raise or lower the signal
Calls of active or inactive are those of the source. How the source made its calls: active means hit-call score of the fitted dose curve at least 0.9, where 1 is the maximum; inactive means score below 0.9.
Field 'call' accepts active, inactive

Completed entries (count: 2):
Compound	Class Assignment
O=C(Nc1ccccc1)Nc1cnns1	inactive
C[C@H]1[C@H](c2ccc(Cl)cc2)SC(=O)N1C(=O)NC1CCCCC1	inactive

**Query** Outcome logged for CCOCN(C(=O)CCl)c1c(C)cccc1CC in this assay:
**Result** active

**Query** Outcome logged for CC[C@H](C)[C@H]1O[C@]2(C=C[C@@H]1C)C[C@@H]1C[C@@H](C/C=C(\C)[C@@H](O[C@H]3C[C@H](OC)[C@@H](O[C@H]4C[C@H](OC)[C@@H](O)[C@H](C)O4)[C@H](C)O3)[C@@H](C)/C=C/C=C3\CO[C@@H]4[C@H](O)C(C)=C[C@@H](C(=O)O1)[C@]34O)O2 (tested in a mixture with another compound) in this assay:
**Result** inactive

**Query** Outcome logged for O=C(O)C(F)(F)C(F)(F)C(F)(F)C(F)(F)C(F)(F)C(F)(F)C(F)(F)F in this assay:
**Result** inactive

**Query** Outcome logged for Clc1ccccc1-c1nnc(-c2ccccc2Cl)nn1 in this assay:
**Result** inactive

**Query** Outcome logged for Cc1[nH]c(=O)n(C(C)(C)C)c(=O)c1Cl in this assay:
**Result** inactive

**Query** Outcome logged for CNC(=O)Oc1ccccc1OC(C)C in this assay:
**Result** inactive

**Query** Outcome logged for CNC(=O)Oc1cccc(N=CN(C)C)c1 in this assay:
**Result** active

* * *

- Read-out: CD38, CD38 (gene 952)
- Test Method Notes: BSK_SAg_CD38: BioMAP Diversity Plus: SAg Assay for CD38 Biomarker Activity (AID 2283087)
- Condition Description: primary human HUVEC with PBMC; actives raise or lower the signal
The source made the active and inactive calls. How the source made its calls: active means hit-call score of the fitted dose curve at least 0.9, where 1 is the maximum; inactive means score below 0.9.
Field 'call' accepts t for active, f for inactive

Completed entries (count: 8):
Compound	Class Assignment
O=C(O)C(F)(F)C(F)(F)C(F)(F)C(F)(F)C(F)(F)C(F)(F)C(F)(F)F	f
CCC(C)Nc1c([N+](=O)[O-])cc(C(C)(C)C)cc1[N+](=O)[O-] (stereo unspecified)	t
CCCN(CCOc1c(Cl)cc(Cl)cc1Cl)C(=O)n1ccnc1	t
CCc1ccc(C(=O)NN(C(=O)c2cc(C)cc(C)c2)C(C)(C)C)cc1	t
COc1cc(OC)nc(NC(=O)NS(=O)(=O)c2cc(NC=O)ccc2C(=O)N(C)C)n1	f
COC(=O)c1ccccc1CS(=O)(=O)NC(=O)Nc1nc(OC)cc(OC)n1	f
O=C(NC(=O)c1c(F)cccc1F)Nc1ccc(OC(F)(F)C(F)OC(F)(F)F)c(Cl)c1 (stereo unspecified)	t
Cc1[nH]c(=O)n(C(C)(C)C)c(=O)c1Cl	f

**Query** Outcome logged for Oc1cc(Cl)ccc1Oc1ccc(Cl)cc1Cl in this assay:
**Result** t

**Query** Outcome logged for COc1nn(CSP(=S)(OC)OC)c(=O)s1 in this assay:
**Result** f

**Query** Outcome logged for CNC(=O)Oc1cccc(N=CN(C)C)c1 in this assay:
**Result** t

* * *

- Read-out: Cytochrome P450 2B6 (Homo sapiens)
- Test Method Notes: CLD_CYP2B6_24hr: CellzDirect (CLD) Gene Expression Assay for xenobiotic metabolism (CYP2B6) at 24 hours (AID 2283686)
Records with an inconclusive call do not appear. Calls of active or inactive are those of the source. Rule for the calls: active = hit-call score of the fitted dose curve at least 0.9, where 1 is the maximum; inconclusive = response in the unintended direction; inactive = score below 0.9.
Field 'call' accepts class 1 (active), class 0 (inactive)

Molecule	Class Assignment
O=S1OCC2C(CO1)C1(Cl)C(Cl)=C(Cl)C2(Cl)C1(Cl)Cl (stereo not drawn)	class 1
Oc1cc(Cl)ccc1Oc1ccc(Cl)cc1Cl	class 0
CCC(C)Nc1c([N+](=O)[O-])cc(C(C)(C)C)cc1[N+](=O)[O-] (stereo not drawn)	class 1

**Query** Outcome logged for CCOCN(C(=O)CCl)c1c(C)cccc1CC in this assay:
**Result** class 1

**Query** Outcome logged for COC(=O)c1ccccc1S(=O)(=O)NC(=O)Nc1nc(C)nc(OC)n1 in this assay:
**Result** class 0

**Query** Outcome logged for Cc1[nH]c(=O)n(C(C)(C)C)c(=O)c1Cl in this assay:
**Result** class 0

**Query** Outcome logged for CCCN(CCOc1c(Cl)cc(Cl)cc1Cl)C(=O)n1ccnc1 in this assay:
**Result** class 1

**Query** Outcome logged for O=C(O)COc1ccc(Cl)cc1Cl in this assay:
**Result** class 0

**Query** Outcome logged for COP(=S)(OC)Oc1ccc([N+](=O)[O-])cc1 in this assay:
**Result** class 1

**Query** Outcome logged for CCc1ccc(C(=O)NN(C(=O)c2cc(C)cc(C)c2)C(C)(C)C)cc1 in this assay:
**Result** class 1

**Query** Outcome logged for CCS(=O)(=O)c1cccnc1S(=O)(=O)NC(=O)Nc1nc(OC)cc(OC)n1 in this assay:
**Result** class 0

* * *

- Read-out: Cytochrome P450 (CYP1A1), CYP1A1 (gene 1543)
- Test Method Notes: LTEA_HepaRG_CYP1A1: Life Technologies and Expression Analysis (LTEA) Assay for Cytochrome P450 (CYP1A1) using HepaRG (AID 2283454)
- Condition Description: mRNA level, 48 h; actives raise or lower the signal
Calls of active or inactive are those of the source. The calls were made as follows: active = hit-call score of the fitted dose curve at least 0.9, where 1 is the maximum; inactive = score below 0.9.
Field 'call' accepts yes (1) for active, no (0) for inactive

Completed entries (count: 2):
Molecule	Class Assignment
CCOC1Oc2ccc(OS(C)(=O)=O)cc2C1(C)C (stereo not drawn)	yes (1)
CCC(C)Nc1c([N+](=O)[O-])cc(C(C)(C)C)cc1[N+](=O)[O-] (stereo not drawn)	yes (1)

Query molecule follows.
**Query** Outcome logged for Clc1ccccc1-c1nnc(-c2ccccc2Cl)nn1 in this assay:
**Result** yes (1)

* * *

- Test Method Notes: APR_HepG2_CellLoss_24hr: Apredica 24-hour HepG2 Assay for Cell Loss (AID 2282908)
- Condition Description: high-content imaging
Active and inactive are the calls of the source. The calls were made as follows: active = hit-call score of the fitted dose curve at least 0.9, where 1 is the maximum; inactive = score below 0.9.
Field 'call' accepts y for active, n for inactive

Molecule	Class Assignment
O=C(O)COc1ccc(Cl)cc1Cl	n

**Query** Outcome logged for N#Cc1c(Cl)c(Cl)c(Cl)c(C#N)c1Cl in this assay:
**Result** n

**Query** Outcome logged for COC(=O)c1ccccc1CS(=O)(=O)NC(=O)Nc1nc(OC)cc(OC)n1 in this assay:
**Result** n

* * *

- Target: rat CYP2D1, Cyp2d1 (gene 266684) (UniProt P10633)
- Sequence (P10633 whole entry, looked up): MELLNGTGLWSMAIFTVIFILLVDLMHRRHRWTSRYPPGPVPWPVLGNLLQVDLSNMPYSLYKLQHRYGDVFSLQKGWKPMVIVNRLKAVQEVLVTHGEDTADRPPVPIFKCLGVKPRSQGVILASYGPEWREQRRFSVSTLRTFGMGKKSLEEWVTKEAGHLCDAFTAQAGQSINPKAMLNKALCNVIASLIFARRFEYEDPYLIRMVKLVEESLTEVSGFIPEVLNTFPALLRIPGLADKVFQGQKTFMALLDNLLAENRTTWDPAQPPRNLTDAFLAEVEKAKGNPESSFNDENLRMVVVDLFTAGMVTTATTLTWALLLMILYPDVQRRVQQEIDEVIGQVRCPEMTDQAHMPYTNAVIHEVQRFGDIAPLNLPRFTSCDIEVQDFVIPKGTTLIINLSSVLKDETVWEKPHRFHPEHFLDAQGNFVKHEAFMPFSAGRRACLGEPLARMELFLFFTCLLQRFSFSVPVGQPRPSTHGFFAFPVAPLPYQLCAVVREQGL
- Test Method Notes: NVS_ADME_rCYP2D1: NovaScreen (NVS) CYP450-related Enzyme Activity (ADME) Assay for rat CYP2D1 (AID 2283122)
- Description: NVS_ADME_rCYP2D1 is a biochemical, single-readout assay that uses extracted gene-proteins in a cell-free assay. Measurements were taken 0.75 hour after chemical dosing in a 96-well plate.NVS_ADME_rCYP2D1 is one of one assay component(s) measured or calculated from the NVS_ADME_rCYP2D1 assay. […] This assay endpoint, NVS_ADME_rCYP2D1, was analyzed in the positive analysis fitting direction relative to Acetonitrile as the negative control and baseline of activity. […]
Records with an inconclusive call do not appear. The source made the active and inactive calls. The calls were made as follows: active = hit-call score of the fitted dose curve at least 0.9, where 1 is the maximum; inconclusive = response in the unintended direction; inactive = score below 0.9.
Field 'call' accepts active, inactive

Completed entries (count: 4):
Compound	Class Assignment
O=C(Nc1ccccc1)Nc1cnns1	active
CCCN(CCOc1c(Cl)cc(Cl)cc1Cl)C(=O)n1ccnc1	active
Oc1ccc(Cl)cc1Cc1ccccc1	active
CCOC1Oc2ccc(OS(C)(=O)=O)cc2C1(C)C (stereo not given)	inactive

Query compound follows.
**Query** Outcome logged for CC(C)(C)C(O)/C(=C\c1ccc(Cl)cc1Cl)n1cncn1 (stereo not given) in this assay:
**Result** active
